Target: ScSla1-D3
Assay: SPOT peptide array binding signal intensity (averaged, normalized) (arbitrary units (background-subtracted, floor 0; scale differs between SH3 domains)); higher = stronger binding of the SH3 domain to the peptide
metric name: SPOT peptide array binding signal intensity

Consider the following illustrative entries.
>  <binder>
LKHGWKPLRPIKLIS

>  <measurement>
6.5

$$$$
>  <binder>
TSIEIPKRSPLRFTS

>  <measurement>
30.2

$$$$
>  <binder>
VNFRRIPTGPDSPPT

>  <measurement>
2.5

$$$$
>  <binder>
IFLRISINFPLNYPN

>  <measurement>
344

$$$$
>  <binder>
DFTLPPPPPPPGLDE

>  <measurement>
≤ 0

$$$$

Field: SPOT peptide array binding signal intensity. Fill in for each record below.
1. VKPRQLFPIPLNKVD
2. DHPKGPPPPPPPDEK

1. ≤ 0
2. 2.5

meta.source: the supplement of paper PMC4466140
